- MEASUREMENT TARGET: KRAS G12S (Homo sapiens, UniProt P01116+P62937, G12S)
- Sequence (P01116 1-169 isoform P01116-2 G12S limits assumed): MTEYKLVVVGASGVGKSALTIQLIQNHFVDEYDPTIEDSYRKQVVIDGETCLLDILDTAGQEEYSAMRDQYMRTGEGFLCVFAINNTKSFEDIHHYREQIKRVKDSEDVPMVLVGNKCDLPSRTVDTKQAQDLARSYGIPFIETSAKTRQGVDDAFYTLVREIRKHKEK
- Sequence (P62937 whole entry): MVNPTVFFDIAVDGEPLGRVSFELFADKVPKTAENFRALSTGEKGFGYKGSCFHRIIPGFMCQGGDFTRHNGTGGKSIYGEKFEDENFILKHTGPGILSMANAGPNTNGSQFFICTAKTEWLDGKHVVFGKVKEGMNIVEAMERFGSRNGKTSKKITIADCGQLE
- EXPERIMENT NOTES: Disruption of BRAF RBD interaction with Ras (FRET / MOA assay, with Cyclophilin A)
- Type: biochemical
- SETTINGS: read-out: KRAS G12S FRET data, IC50
- Text: This protocol may also be executed substituting other Ras proteins or nucleotides. The purpose of this biochemical assay was to measure the ability of test compounds to facilitate ternary complex formation between a nucleotide-loaded K-Ras isoform and Cyclophilin A; the resulting ternary complex disrupts binding to a BRAF^RBD construct, inhibiting K-Ras signaling through a RAF effector. Data is reported as IC50 values. […]
pIC50: −log10 of the molar value.
Documented pIC50 across a set of molecules

>>> measured_value("CCn1c(-c2cccnc2[C@H](C)OC)c2c3cc(ccc31)-c1cccc(c1)C[C@H](NC(=O)[C@H](C(C)C)N1CC[C@]3(CCN(C(=O)C#C[C@@H]4COCCN4C4COC4)C3)C1=O)C(=O)N1CCC[C@H](N1)C(=O)OCC(C)(C)C2")
"5.00 to 6.00"
>>> measured_value("CCn1c(-c2cccnc2[C@H](C)OC)c2c3cc(ccc31)-c1csc(n1)C[C@H](NC(=O)[C@H](C(C)C)N(C)C(=O)N1CC(CO)C1)C(=O)N1CCC[C@H](N1)C(=O)OCC(C)(C)C2 (atropisomer, axis not shown)")
"6.00 to 7.00"
>>> measured_value("C=CC(=O)N1CCC(C(=O)N(C)[C@H](C(=O)N[C@H]2Cc3cc(O)cc(c3)-c3ccc4c(c3)c(c(-c3ccccc3CCOC)n4CC)CC(C)(C)COC(=O)[C@@H]3CCCN(N3)C2=O)C(C)C)CC1")
"5.00 to 6.00"

query: Could you tell me which pIC50 is on file for C=CC(=O)N1CC[C@H](C(=O)N(C)[C@H](C(=O)N[C@H]2Cc3cc(O)cc(c3)-c3ccc4c(c3)c(c(-c3cccc(CN(C)C)c3)n4CC)CC(C)(C)COC(=O)[C@@H]3CCCN(N3)C2=O)C(C)C)C1 ?
result: 5.00 to 6.00

---

- Test system: Capan-1 (K-Ras G12V)
- EXPERIMENT NOTES: CellTiter-Glo cell viability assay, 5-day treatment
- Type: cell-based
- SETTINGS: Homo sapiens, CAPAN-1, 120 h, 5-day treatment; read-out: Capan-1 Cell Viability assay data (K-Ras G12V, IC50)
pIC50: −log10 of the molar value.
PROPERTY NAME: pIC50

Before answering, review these 2 worked examples.
>>> measured_value("CCn1c(-c2cccnc2[C@H](C)OC)c2c3cc(ccc31)-c1nc(cs1)C[C@H](NC(=O)[C@H](C(C)C)N(C)C(C)=O)C(=O)N1CCC[C@H](N1)C(=O)OCC(C)(C)C2 [Example A152]")
"6.00 to 7.00"
>>> measured_value("CCn1c(-c2cccnc2[C@H](C)OC)c2c3cc(ccc31)-c1csc(n1)C[C@H](NC(=O)[C@H](C(C)C)N(C)C(=O)N1CC3(CC(N(C)C)C3)C1)C(=O)N1CCC[C@H](N1)C(=O)OCC(C)(C)C2 (atropisomer, axis not shown) [Example A280]")
"7.00 to 8.00"

Now turn to the next molecule.
query: Could you tell me which pIC50 is on file for CCn1c(-c2cccnc2[C@H](C)OC)c2c3cc(ccc31)-c1csc(n1)C[C@H](NC(=O)[C@H](C(C)C)N(C)C(=O)N1C[C@H]3CN(C)C[C@H]31)C(=O)N1CCC[C@H](N1)C(=O)OCC(C)(C)C2 [Example A497] ?
result: 6.00 to 7.00

// provenance: patent US20230233569A1
